The reported numbers originate from PubChem BioAssay AID1267.

protocolDetails: enhancers of IL-6 STAT3 signaling – U3A cells, luciferase, luminescence, confirmation (AID 1267);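 also: 0% = background signal of medium plus substrate and 100% = median of IL-6 with DMSO wells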
experimentalContext: U3A STAT3-luciferase reporter, IL-6 potentiation, at 5.7 µM, active compounds read high, 100 means same as IL-6 alone, U3A cells lack STAT1
The campaign covered roughly 1,200 compounds. About 770 (64%) were called active. So high a share suggests a set chosen from earlier hits. Only a sample is shown.
measuredProperty: potentiation (% of control) (%)
Report the value in % with no unit label.

>  <molecule>
Oc1c(C=Nc2cccc3nsnc23)ccc2ccccc12

>  <observedResult>
129

$$$$

GET /value?item= "CCOC(=O)N1CCN(CC(=O)Nc2cc(C)nn2-c2nc3ccccc3s2)CC1" &field=potentiation (% of control) returns 140

Given item "COc1ccccc1N1CCN(C(=O)c2cc3c(-c4ccc(Cl)cc4)nn(C)c3s2)CC1" , the value recorded as its potentiation (% of control) is 125

Kindly note the recorded potentiation (% of control) for "Cc1ccc(NC(=O)c2cc([N+](=O)[O-])ccc2Cl)c(O)c1" , which is 158

potentiation (% of control) for "N#Cc1ccccc1NC(=O)COc1c(Br)cc(Br)c2cccnc12" is 162

# molecule "Fc1ccc2nc(-c3ccccc3)nc(SCc3nnc(-c4ccccc4)o3)c2c1" ; its potentiation (% of control) = 132

Measured potentiation (% of control), Oc1cccc(C2c3[nH]c4ccccc4c3CCN2Cc2cnn(-c3ccccc3)c2)c1 (stereo not given) : 137

Recorded result, "C=CCCC(=O)Nc1nc(C)c(-c2csc(Nc3ccc(Cl)cc3)n2)s1" , potentiation (% of control): 135

Measured potentiation (% of control) of "COc1ccc(/C=N/Nc2ncnc3sc4c(c23)CCCC4)cc1O" : 114

The measured potentiation (% of control) associated with "Cn1nc(-c2ccc(Cl)cc2)c2cc(C(=O)NCc3ccco3)sc21" reads 153

###

protocolDetails: enhancers of IL-6 STAT3 signaling – U3A cells, luciferase, luminescence, confirmation (AID 1267);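 also: 0% = background signal of medium plus substrate and 100% = median of IL-6 with DMSO wells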
experimentalContext: U3A STAT3-luciferase reporter, IL-6 potentiation, at 5.7 µM, active compounds read high, 100 means same as IL-6 alone, U3A cells lack STAT1
The campaign covered roughly 1,200 compounds. About 770 (64%) were called active. The set was probably picked from earlier hits. The list is a sample of the results.
Listed here are compounds together with their documented potentiation (% of control).
Numeric only. Scale: %

>  <compound>
CSc1nc2sc3c(c2c(=O)[nH]1)CCc1ccccc1-3

>  <observedResult>
142

$$$$

Recorded result, "COc1nc(N=C(N)N)nc2c(C)cccc12" , potentiation (% of control): 144

So, "Cc1ccc(N=Nc2c(C)[nH]n(-c3ccccc3)c2=O)cc1" ? Its potentiation (% of control) was 147

"O=C1CCCN1CCCNc1ncnc2c1[nH]c1ccccc12" yielded potentiation (% of control) of 144

Lab book: potentiation (% of control) of "Cc1nc(N=C(N)N)nc2c(C)cccc12" noted as 172

Item: CSCCC(NC(=O)c1ccco1)C(=O)OCC(=O)Nc1ncc(Cl)c(C)c1Cl (stereo unspecified) | potentiation (% of control): 124

The reported value for "COC(=O)c1[nH]c2ccccc2c1NC(=O)CN1CCCc2ccccc21" in terms of potentiation (% of control) is 153

Given item "N#Cc1c(C(F)(F)F)cc(-c2ccc(Cl)cc2)nc1SCC(=O)O" , the value recorded as its potentiation (% of control) is 159

Recorded result, "Cc1cccc(N(CC(=O)N=Nc2c(O)[nH]c3ccccc23)S(C)(=O)=O)c1C" , potentiation (% of control): 129

potentiation (% of control) reading for "CC(C)CNC(=O)COC(=O)/C=C/c1ccccc1[N+](=O)[O-]" : 126

For reference, reported potentiation (% of control) for COc1ccc(C2c3[nH]c4ccccc4c3CCN2CCCn2cccn2)cc1C (stereo unspecified) stands at 142
